Tested on: T. cruzi Tulahuen strain amastigote (Luc-mNeonGreen)
measurement.protocol: Anti-amastigote activity in infected H9C2 cells, bioluminescent quantification, Tulahuen strain
Type: cell-based
particulars: Trypanosoma cruzi, Tulauan strain amastigotes in H9C2 cells, bioluminescence, 48 h
observable: IC50 (µM)
Output spec: scalar in µM, unitless text.

(Q) Quickly give me recorded IC50 for O=C(Cn1ccnc1[N+](=O)[O-])NCc1ccccc1 [BNZ]
(A) 12.5

----------
System: T. cruzi Y strain trypomastigote
measurement.protocol: Anti-trypomastigote activity, resazurin assay, Y strain
Type: cell-based
particulars: Trypanosoma cruzi, 24 h, read-out: half-inhibitory concentration (IC50), Y strain trypomastigote
observable: IC50 (µM)
Output spec: scalar in µM, unitless text.

(Q) Quickly give me recorded IC50 for `O=C(Cn1ccnc1[N+](=O)[O-])NCc1ccccc1`
(A) 55.9
